Origin of measurements: ChEMBL document CHEMBL4732042

assay target: Sigma non-opioid intracellular receptor 1 (Homo sapiens)
measurement description: Displacement of [3H]pentazocine from human sigma 1 receptor expressed in HEK293 cell membrane incubated for 2 hrs by liquid scintillation counting method
pKi: −log10 of the molar value.
Where pKi equals or exceeds 7, the correct label is Met; where it does not, the label is Not met.

Field: example entries. Status: answers known.
# check: pKi of CCN(CC)CCOc1ccc2occc(=O)c2c1 is greater than or equal to 7 Not met

Check the entry O=c1ccoc2ccc(OCCCN3CCOCC3)cc12 : does pKi equal or exceed 7? Not met

Hi team, for O=c1ccoc2ccc(OCCCN3CCCCCC3)cc12 , is the recorded pKi at or above 7? Met

Is reported pKi greater than or equal to 7 here: O=c1ccoc2ccc(OCCCCCN3CCOCC3)cc12 Met

Identify whether the reported pKi of the following compound is 7 or greater: O=c1ccoc2ccc(OCCCN3CCCC3)cc12 Not met

***
hey, is pKi for this one >= 7? O=c1ccoc2ccc(OCCCCN3CCOCC3)cc12 Met

====

assay target: Sigma intracellular receptor 2 (Rattus norvegicus, UniProt Q5U3Y7)
Sequence (Q5U3Y7 whole entry): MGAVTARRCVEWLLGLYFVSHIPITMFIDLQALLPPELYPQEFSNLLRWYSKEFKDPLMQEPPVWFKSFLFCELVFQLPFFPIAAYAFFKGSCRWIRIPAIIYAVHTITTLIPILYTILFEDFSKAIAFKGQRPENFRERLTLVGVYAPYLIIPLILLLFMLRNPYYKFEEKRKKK
measurement description: Displacement of (+)-[3H]DTG from sigma 2 receptor in SPRD rat liver membrane incubated for 2 hrs by liquid scintillation counting method
# if measured Ki < 8 µM: 1 (yes)  # else: 0 (no)

The examples below pair each entry with its known result.
Ki strictly < 8 µM for this molecule? O=c1ccoc2ccc(OCCCN3CCCCCC3)cc12 1 (yes)

Lab log: compare recorded Ki with 8 µM; is it strictly lower for CN1CCN(CCCOc2ccc3occc(=O)c3c2)CC1 ? 0 (no)

Lab log: compare recorded Ki with 8 µM; is it strictly lower for O=c1ccoc2ccc(OCCCN3CCCCC3)cc12 ? 1 (yes)

Hi there! Is Ki for CN1CCN(CCOc2ccc3occc(=O)c3c2)CC1 below 8 µM, do you know? 0 (no)

Given the entry O=c1ccoc2ccc(OCCN3CCCCCC3)cc12 , would its reported Ki be below 8 µM? 1 (yes)

Lab log: compare recorded Ki with 8 µM; is it strictly lower for CCN(CC)CCCOc1ccc2occc(=O)c2c1 ? 0 (no)

For CCN(CC)CCOc1ccc2occc(=O)c2c1 , is the recorded Ki below the cut-off of 8 µM? 0 (no)

API: query returns whether the molecule falls strictly under 8 µM in Ki. Query: CCN(CC)CCCCCOc1ccc2occc(=O)c2c1 1 (yes)

We now examine a further molecule.
Could you please tell me whether Ki recorded for O=c1ccoc2ccc(OCCCN3CCOCC3)cc12 is less than 8 µM? 0 (no)

====

Data export: IC50 values recorded with Cholinesterase (Homo sapiens).
Sequence (P06276 whole entry): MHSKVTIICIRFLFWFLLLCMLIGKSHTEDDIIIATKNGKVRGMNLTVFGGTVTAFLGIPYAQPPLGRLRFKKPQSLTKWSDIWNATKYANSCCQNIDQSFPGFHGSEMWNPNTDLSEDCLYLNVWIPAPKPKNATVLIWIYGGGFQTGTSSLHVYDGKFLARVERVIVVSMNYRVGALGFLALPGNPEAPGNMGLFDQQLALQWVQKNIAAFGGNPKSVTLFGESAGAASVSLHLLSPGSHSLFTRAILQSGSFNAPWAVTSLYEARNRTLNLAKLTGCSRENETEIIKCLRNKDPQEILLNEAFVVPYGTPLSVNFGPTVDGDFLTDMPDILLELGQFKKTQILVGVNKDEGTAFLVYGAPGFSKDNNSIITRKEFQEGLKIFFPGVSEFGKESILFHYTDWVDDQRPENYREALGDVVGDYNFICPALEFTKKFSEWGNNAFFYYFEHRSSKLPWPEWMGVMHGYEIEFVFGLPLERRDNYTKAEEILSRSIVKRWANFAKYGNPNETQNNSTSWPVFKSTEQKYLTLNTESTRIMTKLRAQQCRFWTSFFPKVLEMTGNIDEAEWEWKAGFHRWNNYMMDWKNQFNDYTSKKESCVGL

Using the record for O=c1ccoc2ccc(OCCCCN3CCCCC3)cc12 , report its IC50. 87.5 µM

Further cases:
Any idea what IC50 was measured for O=c1ccoc2ccc(OCCCCCN3CCOCC3)cc12 ? > 100 µM

====

assay target: Sigma non-opioid intracellular receptor 1 (Homo sapiens, UniProt Q99720)
Sequence (Q99720 whole entry): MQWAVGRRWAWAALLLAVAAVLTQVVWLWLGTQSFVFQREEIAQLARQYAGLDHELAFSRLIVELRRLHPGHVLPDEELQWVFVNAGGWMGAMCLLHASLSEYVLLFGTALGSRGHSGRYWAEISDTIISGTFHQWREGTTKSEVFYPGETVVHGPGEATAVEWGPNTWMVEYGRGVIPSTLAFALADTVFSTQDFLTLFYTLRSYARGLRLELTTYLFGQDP
measurement description: Displacement of [3H]pentazocine from human sigma 1 receptor expressed in HEK293 cell membrane incubated for 2 hrs by liquid scintillation counting method
# log10(Ki) per record follows
Hello, just confirming the data are log10 of Ki with units of nM.

Field request: log10(Ki) | item: O=c1ccoc2ccc(OCCN3CCCCCC3)cc12 2.05

What value of log10(Ki) has been recorded for this entry: CN1CCN(CCCCCOc2ccc3occc(=O)c3c2)CC1 1.92

Consider the molecule shown here: CCN(CC)CCCOc1ccc2occc(=O)c2c1 What is its recorded log10(Ki)? 3.09

So what's the measured log10(Ki) for this one? CN1CCN(CCCOc2ccc3occc(=O)c3c2)CC1 2.91

Item under review: O=c1ccoc2ccc(OCCN3CCCC3)cc12 . Reported log10(Ki)? 3.46

Reported log10(Ki), molecule CCN(CC)CCCCCOc1ccc2occc(=O)c2c1 : ____ 2.34

Note: attention shifts to another entry.
Fill blank: measured log10(Ki) of the molecule C[C@@H]1CCCN1CCCCOc1ccc2occc(=O)c2c1 is ____. 2.02
